Attribute: EC50 decrease, fold (Screen N 3)
System: primary acute myeloid leukemia (AML) cells obtained from patients
Experiment: Kinase inhibitor library screening with and without NSC130362, primary AML cells
Type: cell-based, Human
Conditions: ratio of EC50 for inhibitor to EC50 for inhibitor/NSC130362 combination; NSC130362 10 μM; Screen N 3
Record the value in fold, omitting the unit from your answer.

These solved cases illustrate the format of a correct answer.
• COc1cc(N2CCC(N3CCN(C)CC3)CC2)ccc1Nc1ncc(Cl)c(Nc2ccccc2P(C)(C)=O)n1 [Brigatininb (AP-26113)] = 1.8
• Cn1c(=O)n(-c2ccc(C(C)(C)C#N)cc2)c2c3cc(-c4cnc5ccccc5c4)ccc3ncc21 [BEZ235] = 8.8
• Cc1cn(-c2cc(NC(=O)c3ccc(C)c(Nc4nccc(-c5cccnc5)n4)c3)cc(C(F)(F)F)c2)cn1 [Nilotinib] = 1.0

Give its EC50 decrease, fold (Screen N 3) value. Item: CNC(=O)c1c(F)cccc1Nc1nc(Nc2cc3c(cc2OC)CCN3C(=O)CN(C)C)nc2[nH]ccc12 [GSK-1838705A]
522.0
